experiment.description: log p: n-octanol/water partition coefficient determined by reverse phase HPLC analysis using H2O/CH3CN
Assay type: physicochemical
condition.info: pH 7.5
From the text: *log p: logarithm to base ten of the noctanol/water partition coefficient determined by reverse phase HPLC analysis using H2 O/CH3 CN.
The following molecules are listed with their measured chromatographic logP values.

Answered cases to consult:
record.smiles	endpoint.value
COc1ccc(-c2nnc(CC(F)=C(F)F)o2)cc1	2.46
FC(F)=C(F)Cc1nnc(-c2ccco2)o1	1.89

// next entry
Value of chromatographic logP reported for the molecule FC(F)=C(F)Cc1nnc(-c2cccs2)o1 is 2.19

* * *

# maps each entry to its chromatographic logP
experiment.description: log p: n-octanol/water partition coefficient determined by reverse phase HPLC analysis using H2O/CH3CN
Type: physicochemical
condition.info: pH 2
Excerpt: *log p: logarithm to base ten of the noctanol/water partition coefficient determined by reverse phase HPLC analysis using H2 O/CH3 CN.
// keep it numeric: no unit symbol after the value

Recorded chromatographic logP, per entry:
record.smiles	chromatographic logP
FC(F)=C(F)Cc1nc(-c2ccccc2Cl)no1	3.3
FC(F)=C(F)Cc1nc(-c2cc(Cl)cc(Cl)c2)no1	4.72
FC(F)=C(F)Cc1nc(-c2c(Cl)cccc2Cl)no1	3.44

Given item FC(F)=C(F)Cc1nc(-c2ccccc2)no1 , the value recorded as its chromatographic logP is 3.2

* * *

experiment.description: log p: n-octanol/water partition coefficient determined by reverse phase HPLC analysis using H2O/CH3CN
Format: physicochemical
condition.info: pH not stated
assay.readout: chromatographic logP

Just so you know, measured chromatographic logP for FC(F)=C(F)Cc1nc(CCl)no1 came out at 2.08
